Value source: patent US7008636B2

Target: recombinant, human protein tyrosine phosphatase (PTP) 1B (hPTP1B) (Homo sapiens)
Sequence (P18031 whole entry): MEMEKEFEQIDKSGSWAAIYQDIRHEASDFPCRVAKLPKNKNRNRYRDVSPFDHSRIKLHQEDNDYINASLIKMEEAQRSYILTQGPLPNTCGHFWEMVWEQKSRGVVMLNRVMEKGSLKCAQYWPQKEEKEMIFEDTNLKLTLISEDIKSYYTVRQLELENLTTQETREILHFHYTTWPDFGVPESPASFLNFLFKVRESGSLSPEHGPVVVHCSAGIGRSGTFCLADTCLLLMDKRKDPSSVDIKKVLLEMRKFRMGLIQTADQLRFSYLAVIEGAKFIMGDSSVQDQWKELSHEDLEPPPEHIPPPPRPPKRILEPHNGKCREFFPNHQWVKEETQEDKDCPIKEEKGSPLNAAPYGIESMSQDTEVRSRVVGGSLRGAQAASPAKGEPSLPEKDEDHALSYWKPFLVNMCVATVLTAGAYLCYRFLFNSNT
Experiment: Inhibition of tri-phosphorylated insulin receptor dodecaphosphopeptide dephosphorylation by hPTP1B
Conditions: 50 μM IR triphosphopeptide substrate, 5 min preincubation and 5 min reaction at 37° C., malachite green-ammonium molybdate phosphate detection
pIC50: −log10 of the molar value.
TEST_READOUT: pIC50

Example cases with answers are listed next.
COMPOUND: O=C(O)COc1ccc(C(=O)NCCCCCCCCc2ccccc2)cc1-c1ccc(F)c(Cl)c1
pIC50: 6.34

COMPOUND: O=C(NCCCCCCCCc1ccccc1)c1cc(-c2cccc(C(F)(F)F)c2)c(OS(=O)(=O)c2ccc(C(=O)O)c(O)c2)c(-c2cccc(C(F)(F)F)c2)c1
pIC50: 7.30

COMPOUND: O=C(O)COc1c(-c2cccc(Cl)c2)cc(C(=O)NCCCCCCCC[S+]([O-])c2ccc(Cl)cc2)cc1-c1cccc(Cl)c1 (stereo not drawn)
pIC50: 6.20

A = O=C(O)COCCOc1c(-c2cccc(Cl)c2)cc(C(=O)NCCCCCCCCn2ccc3ccccc32)cc1-c1cccc(Cl)c1
B = CCCCCCCCCCCCNC(=O)c1cc(-c2ccc(OC)cc2)c(OCC(=O)O)c(-c2cccc(C(F)(F)F)c2)c1
Data request: Given A and given B , which shows the smaller recorded pIC50? Mark your selection by writing its label.
Data returned: B
(B: 6.89, A: 7.11)
